Test: Antiproliferative against HLF1 cells measured after 48 hrs by CCK8 assay
Format: toxicity, cell-based
Conditions: human, HFL1 cells (description prints HLF1)
Assay Readout: IC50 at 48 h

Some solved entries appear below for comparison.
[[record]]
structure_as_smiles = "CCn1c(=O)c(C(=O)Nc2cccc(-c3nncn3C3CCCCC3)n2)cc2c(C(F)(F)F)nn(C)c21"
assay_readout = "IC50 at 48 h"
observed_value = "> 80 µM"

[[record]]
structure_as_smiles = "CCCCn1cnnc1-c1cccc(NC(=O)c2cc3c(C(F)(F)F)nn(C)c3[nH]c2=O)n1"
assay_readout = "IC50 at 48 h"
observed_value = "> 80 µM"

[[record]]
structure_as_smiles = "Cn1nc(C(F)(F)F)c2cc(C(=O)Nc3cccc(-c4nncn4C4CCCCC4)n3)c(=O)[nH]c21"
assay_readout = "IC50 at 48 h"
observed_value = "> 80 µM"


Give me IC50 at 48 h for each of these compounds, listed below.
1. O=C(Nc1cccc(-c2nncn2C2CC2)n1)c1cc(-c2ccc3[nH]ccc3c2)cn(Cc2ccccc2F)c1=O
2. CC(C)n1cnnc1-c1cccc(NC(=O)c2cc3c(C(F)(F)F)nn(C)c3[nH]c2=O)n1
3. Cn1nc(C(F)(F)F)c2cc(C(=O)Nc3cccc(-c4nncn4C4CCCC4)n3)c(=O)[nH]c21
4. CC(C)n1cnnc1-c1cccc(NC(=O)c2cc3c(C(F)(F)F)nn(C)c3[nH]c2=O)c1
5. O=C(Nc1cccc(-c2nncn2C2CC2)n1)c1cc(-c2cccnc2)cn(Cc2ccccc2F)c1=O
6. O=C(N[C@@H](COc1ccc2[nH]c(=O)[nH]c2c1)c1ccccc1)c1cccn(Cc2ccc(F)c(F)c2)c1=O
7. CC(C)n1cnnc1-c1cccc(NC(=O)c2cc3c(C(F)(F)F)nn(C)c3n(C)c2=O)c1

Data returned:
1. 18.7 µM
2. > 80 µM
3. > 80 µM
4. > 80 µM
5. 64.2 µM
6. 64.8 µM
7. > 80 µM

Give me IC50 at 48 h for each of these compounds, listed below.
1. O=C(Nc1cccc(-c2nncn2C2CC2)n1)c1cc(-c2cccc3[nH]ccc23)cn(Cc2ccccc2F)c1=O
2. CC(C)n1cnnc1-c1cccc(NC(=O)c2cc3c(C(F)(F)F)nn(C)c3nc2OCc2ccccc2F)n1
3. O=C(Nc1cccc(-c2nncn2C2CC2)c1)c1cc(-n2cnc(C3CC3)c2)ccn1
4. O=C(Nc1cccc(-c2nncn2C2CC2)n1)c1cc(Br)cn(Cc2ccccc2F)c1=O

Data returned:
["> 80 µM", "17.9 µM", "67.9 µM", "> 80 µM"]

---

For each entry below, report its IC50 at 48 h value.
Assay: Antiproliferative against rat HSC-T6 cells measured after 48 hrs by CCK8 assay
Format: toxicity, cell-based

Some solved entries appear below for comparison.
[[record]]
structure_as_smiles = "Cn1nc(C(F)(F)F)c2cc(C(=O)Nc3cccc(-c4nncn4C4CCCC4)c3)c(=O)[nH]c21"
observed_value = "> 80 µM"

[[record]]
structure_as_smiles = "CC(C)n1cnnc1-c1cccc(NC(=O)c2cc3c(C(F)(F)F)nn(C)c3[nH]c2=O)n1"
observed_value = "> 80 µM"


Give me IC50 at 48 h for each of these molecules, listed below.
1. O=C(Nc1cccc(-c2nncn2C2CC2)c1)c1cc(-n2cnc(C3CC3)c2)ccn1
2. Cn1nc(C(F)(F)F)c2cc(C(=O)Nc3cccc(-c4nncn4C4CC4)n3)c(OCc3ccccc3F)nc21

Data returned:
1: 33.4 µM; 2: > 80 µM

Give me IC50 at 48 h for each of these molecules, listed below.
1. O=C(Nc1cccc(-c2nncn2C2CC2)n1)c1cc(-c2ccc3scnc3c2)cn(Cc2ccccc2F)c1=O
2. CC(C)n1cnnc1-c1cccc(NC(=O)c2cc3c(C(F)(F)F)nn(C)c3[nH]c2=O)c1

Data returned:
["> 80 µM", "> 80 µM"]
